subjectOfTest: MERTK (Homo sapiens)
assayMethodText: TR-FRET kinase activity assay, MERTK
Type: biochemical
measurementParameters: TR-FRET activity assay, ATP at Km, 60 minutes; read-out: Mer IC50
Structures can show the parent of a compound that is named as a salt.
Entries and their IC50

Answered examples (3):
{"compound": "CCCC(C)Nc1ncc2c(=O)n(C3CCN(C(C)=O)CC3)cc([C@H]3CC[C@H](O)CC3)c2n1 (stereo partly shown) [Compound 128, hydrochloride]", "IC50": "≤ 0.1 µM"}
{"compound": "CCC[C@@H](C)Nc1ncc2c(OC3CCNCC3)ncc([C@H]3CC[C@@H](O)CC3)c2n1", "IC50": "≤ 0.1 µM"}
{"compound": "COC[C@H](C)Nc1ncc2c(O[C@H]3C[C@@H](O)C3)ncc([C@H]3CC[C@H](O)CC3)c2n1", "IC50": "≤ 0.1 µM"}

Record lookup: for MERTK (Homo sapiens), what IC50 belongs to C[C@@H](CC(F)(F)F)Nc1ncc2c(OC3CCN(c4ncccn4)CC3)ncc([C@H]3CC[C@H](O)CC3)c2n1 ?
≤ 0.1 µM

###

subjectOfTest: MERTK (Homo sapiens, UniProt Q12866)
Sequence (Q12866 21-999): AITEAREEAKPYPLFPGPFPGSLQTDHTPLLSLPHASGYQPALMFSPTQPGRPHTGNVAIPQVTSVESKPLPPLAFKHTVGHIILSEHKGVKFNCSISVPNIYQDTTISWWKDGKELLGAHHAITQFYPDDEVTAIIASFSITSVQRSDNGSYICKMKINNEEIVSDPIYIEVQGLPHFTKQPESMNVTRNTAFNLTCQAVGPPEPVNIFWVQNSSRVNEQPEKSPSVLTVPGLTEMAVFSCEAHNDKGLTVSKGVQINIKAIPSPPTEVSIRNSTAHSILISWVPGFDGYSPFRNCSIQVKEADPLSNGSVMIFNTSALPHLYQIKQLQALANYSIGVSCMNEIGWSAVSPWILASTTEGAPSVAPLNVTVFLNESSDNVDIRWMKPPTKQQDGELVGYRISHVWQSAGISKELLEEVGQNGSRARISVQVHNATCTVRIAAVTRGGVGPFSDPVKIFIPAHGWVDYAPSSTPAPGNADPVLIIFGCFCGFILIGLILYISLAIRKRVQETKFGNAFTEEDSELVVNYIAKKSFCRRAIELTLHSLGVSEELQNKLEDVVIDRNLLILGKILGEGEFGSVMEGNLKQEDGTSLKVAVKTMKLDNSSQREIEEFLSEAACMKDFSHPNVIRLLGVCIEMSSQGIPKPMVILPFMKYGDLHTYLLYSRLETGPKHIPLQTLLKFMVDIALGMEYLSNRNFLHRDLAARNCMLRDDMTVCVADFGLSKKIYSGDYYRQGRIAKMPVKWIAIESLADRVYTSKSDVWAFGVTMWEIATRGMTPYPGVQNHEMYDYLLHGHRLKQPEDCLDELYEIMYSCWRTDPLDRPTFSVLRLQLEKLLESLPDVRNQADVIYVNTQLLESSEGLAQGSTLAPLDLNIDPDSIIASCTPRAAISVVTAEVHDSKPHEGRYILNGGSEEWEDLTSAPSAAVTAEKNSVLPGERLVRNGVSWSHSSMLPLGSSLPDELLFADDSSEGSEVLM
assayMethodText: TR-FRET kinase activity assay, MERTK
Assay type: biochemical
measurementParameters: ratio calculated as FLT3 IC50/Mer IC50

{"compound": "CCCC(C)Nc1ncc2c(=O)n([C@H]3CCN(C)C[C@@H]3F)cc([C@H]3CC[C@H](O)CC3)c2n1 (stereo partly shown)", "Mer/Flt3 ratio (FLT3 IC50/Mer IC50)": "+++ (a ratio of >100)"}
{"compound": "CNS(=O)(=O)N[C@H]1CC[C@H](c2cnc(OC3CCOCC3)c3cnc(N[C@@H](C)COC)nc32)CC1", "Mer/Flt3 ratio (FLT3 IC50/Mer IC50)": "+++ (a ratio of >100)"}
{"compound": "C[C@@H](CC(F)(F)F)Nc1ncc2c(O[C@H]3C[C@H](O)C3)ncc([C@H]3CC[C@H](O)CC3)c2n1", "Mer/Flt3 ratio (FLT3 IC50/Mer IC50)": "+++ (a ratio of >100)"}
{"compound": "CN1C[C@H](Nc2ncc3c(OC4CCOCC4)ncc([C@H]4CC[C@H](O)CC4)c3n2)CC1=O", "Mer/Flt3 ratio (FLT3 IC50/Mer IC50)": "+++ (a ratio of >100)"}

// provenance: patent US20200291018A1
